# TEST SUMMARY: Toxicity liver stage against HepG2, at 10uM
# Type: cell-based
# Set-up: test concentration 10 uM, cell line HepG2-A16-CD81EGFP
# RUN PARAMETERS: human, HepG2-A16-CD81EGFP cells; read-out: INHIBITION
MEASURED PROPERTY: cytotoxicity at 10 µM (%)
Answers are plain numbers, in %.

Use the examples below as a reference point.
COMPOUND: CCOc1ccccc1C(=O)N(C)C(C)c1ccc(S(C)(=O)=O)cc1 (centres undefined)
cytotoxicity at 10 µM, %: 12.9

COMPOUND: CN(C)C(=O)c1noc2c1CN(C(=O)CCC1CCCCN1C)CC2 (centres undefined)
cytotoxicity at 10 µM, %: -2.74

COMPOUND: CN(Cc1cccc2cccnc12)C1CCS(=O)(=O)C1 (centres undefined)
cytotoxicity at 10 µM, %: -0.237

COMPOUND: COc1ccc(NC(C)C(=O)NCCc2cccs2)cc1F (centres undefined)
cytotoxicity at 10 µM, %: -13.5

COMPOUND: CCN1CCN(C(=O)C(C)n2cc(Br)cn2)CC1 (centres undefined)
cytotoxicity at 10 µM, %: 6.39

COMPOUND: Cc1c(NCC(C)(C)C)cccc1C(=O)NCc1ncnn1C
cytotoxicity at 10 µM, %: -3.53

State the recorded cytotoxicity at 10 µM for every item in the following list.
1. COCC(=O)N1CCN(Cn2nc(C)c(Br)c2C)CC1
2. Cc1nc(CN2CCO[C@H]3[C@H](OCC(=O)N(C)C)CC[C@@H]32)cs1
3. O=C(C1CC1)N1CCC2(CCN(Cc3cccc(F)c3)CC2)CC1
4. Cc1cc(C)n2ncc(CN3CCC(Cn4cc(CO)nn4)CC3)c2n1

1. 0.633
2. 0.129
3. -4.07
4. 7.85

State the recorded cytotoxicity at 10 µM for every item in the following list.
1. CC(=O)N1CCO[C@@H]2CN(S(=O)(=O)c3ccccc3F)C[C@@H]2C1
2. C[C@H]1C[C@H]2CN(C(=O)C3=CCCC3)CC[C@H]2O1

[12.6, 3.76]

State the recorded cytotoxicity at 10 µM for every item in the following list.
1. COc1ccc(C(C)NC(=O)C2CCN(S(C)(=O)=O)CC2)cc1C (centres undefined)
2. Cc1ccc(NC(=O)C2=CN=S=N2)cc1
3. CCc1nccn1C1CCCN(C(=O)c2ccn(C)c(=O)c2)C1 (centres undefined)
4. O=C(COCC1CC1)N1CCCC(n2ccnc2)C1 (centres undefined)
5. O=C(Cn1cnc(-c2cccs2)cc1=O)Nc1cccnc1
6. Cc1cc(C(=O)N(CC2CCCO2)c2ccncc2)c(C)o1 (centres undefined)
7. Cc1nc(CN2CCCC(CCc3ccccc3C)C2)c[nH]1 (centres undefined)
8. COc1cccc(OCC(=O)NCc2ccc3[nH]c(=O)[nH]c3c2)c1

-7.5
3.51
17
0.0481
-3.69
-8.97
-1.35
2.59

State the recorded cytotoxicity at 10 µM for every item in the following list.
1. CC1CCc2n[nH]c(C(=O)N3CCc4c(nc(N(C)C)[nH]c4=O)C3)c2C1 (centres undefined)
2. Cc1cccc(CN(C)Cc2nc3c(cnn3C)c(=O)[nH]2)c1
3. Cc1cc(CS(=O)(=O)NCC2CCCCC2)on1
4. Cc1ccccc1CC(=O)NS(=O)(=O)c1cccc2cnccc12

1. 21.4
2. -8.08
3. -18.7
4. -0.601
